B1: Far upstream element-binding protein 1, residues 184 to 257; numbered along this chain, Q96AE4 (parent)
chain: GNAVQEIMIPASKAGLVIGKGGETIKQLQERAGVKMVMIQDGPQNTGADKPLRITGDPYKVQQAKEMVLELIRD

Variants of: B1
Assay: abundance fitness (aPCA) (normalised: wild type 0, dead -1); higher = more abundant; growth selection in yeast, the domain comes from the species named
Details: Homo sapiens
Lab note: compare abundance fitness against -0.07. Equal or greater, write 1 (yes). Smaller, write 0 (no).

Some entries whose results are on file:
E66P : 0 (no)
L69V : 0 (no)
R53I : 1 (yes)

Prompt: Is abundance fitness at least -0.07? Consider `E66G`
Completion: 1 (yes)

Prompt: Is abundance fitness at least -0.07? Consider `Q63T`
Completion: 1 (yes)

Prompt: Is abundance fitness at least -0.07? Consider `G56V`
Completion: 0 (no)

Prompt: Is abundance fitness at least -0.07? Consider `L69K`
Completion: 1 (yes)

Prompt: Is abundance fitness at least -0.07? Consider `G42L`
Completion: 0 (no)

Prompt: Is abundance fitness at least -0.07? Consider `A11K`
Completion: 1 (yes)

Prompt: Is abundance fitness at least -0.07? Consider `D49T`
Completion: 1 (yes)
